assay text: PFAS levels in serum samples of airport employees (LC/MS/MS)
measurement conditions: 4th sampling (December 2018), count 16
Classification field: enter T for Serum PFAS level, Median values not below 10, F for values below it.

Worked examples, 4 compounds total:
>  <test smiles>
O=S(=O)(O)C(F)(F)C(F)(F)C(F)(F)C(F)(F)C(F)(F)C(F)(F)F

>  <assigned class>
T

$$$$
>  <test smiles>
O=S(=O)(O)C(F)(F)C(F)(F)C(F)(F)C(F)(F)C(F)(F)F

>  <assigned class>
F

$$$$
>  <test smiles>
O=S(=O)(O)C(F)(F)C(F)(F)C(F)(F)C(F)(F)C(F)(F)C(F)(F)C(F)(F)F

>  <assigned class>
F

$$$$
>  <test smiles>
O=S(=O)(O)C(F)(F)C(F)(F)C(F)(F)C(F)(F)F

>  <assigned class>
F

$$$$

Please find the next compound below.
Query: Could you tell me if the measured Serum PFAS level, Median of O=C(O)C(F)(F)C(F)(F)C(F)(F)C(F)(F)C(F)(F)F reaches 10 or more?
Response: F
